EXPERIMENT SUMMARY: Total AUC (infinity) in mouse at 1 mg/kg, iv or 5 mg/kg, po
Assay type: ADME, organism-based
TEST CONDITIONS: in vivo
MEASUREMENT NAME: AUC(0-inf) (µM·h)
All answers are understood in µM·h, so give the number only.

CHEMICAL STRING: COc1nc(N[C@@H](C)c2cc3cc(Cl)ccc3[nH]c2=O)ncc1C#N
AUC(0-inf), µM·h: 107

Then there is this molecule:
[Q] GET /values?readout=AUC(0-inf)&item= COc1cc2[nH]c(=O)c([C@H](C)Nc3ncc(C#N)c(OC)n3)cc2cc1Cl
[A] 21.5

====

# Papp A→B listing for each entry below
EXPERIMENT SUMMARY: Apparent permeability of the compound across apical side to basolateral side in human Caco2 cells
Format: ADME, cell-based
TEST CONDITIONS: Caco-2

CHEMICAL STRING: COc1nc(N[C@@H](C)c2cc3cc(Cl)ccc3[nH]c2=O)ncc1C#N
Papp A→B: 8.66 ×10⁻⁶ cm/s

Then there is this compound:
[Q] GET /values?readout=Papp A→B&item= COc1cc2[nH]c(=O)c([C@H](C)Nc3ncc(C#N)c(OC)n3)cc2cc1Cl
[A] 5.73 ×10⁻⁶ cm/s

====

MEASUREMENT TARGET: Isocitrate dehydrogenase [NADP] cytoplasmic (Homo sapiens, UniProt O75874, R132C)
Sequence (O75874 2-414 R132C limits assumed): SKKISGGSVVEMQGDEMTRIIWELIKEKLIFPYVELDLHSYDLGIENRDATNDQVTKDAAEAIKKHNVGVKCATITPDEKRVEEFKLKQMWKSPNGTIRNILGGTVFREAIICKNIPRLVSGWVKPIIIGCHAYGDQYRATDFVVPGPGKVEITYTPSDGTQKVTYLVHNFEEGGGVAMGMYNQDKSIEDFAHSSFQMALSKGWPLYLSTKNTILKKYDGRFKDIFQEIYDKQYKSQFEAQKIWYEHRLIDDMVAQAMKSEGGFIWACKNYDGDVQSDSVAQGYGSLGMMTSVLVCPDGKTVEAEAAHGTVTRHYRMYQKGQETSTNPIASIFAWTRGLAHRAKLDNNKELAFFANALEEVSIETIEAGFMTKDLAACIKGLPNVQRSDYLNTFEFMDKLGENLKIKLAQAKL
EXPERIMENT SUMMARY: Inhibition of IDH1 R132C mutant in human HCT116 cells assessed as reduction in 2-HG levels after 24 hrs by RapidFire high-throughput mass spectrometry assay
Type: cell-based
# IC50 listing for each entry below
All answers are understood in nM, so give the number only.

CHEMICAL STRING: COc1nc(N[C@@H](C)c2cc3cc(Cl)ccc3[nH]c2=O)ncc1C#N
MEASUREMENT TARGET: Isocitrate dehydrogenase [NADP] cytoplasmic (Homo sapiens, UniProt O75874, R132C)
IC50, nM: 233

CHEMICAL STRING: COc1nc(N[C@@H](C)c2cc3cc(Cl)c(OCC4CC4)cc3[nH]c2=O)ncc1C#N
MEASUREMENT TARGET: Isocitrate dehydrogenase [NADP] cytoplasmic (Homo sapiens, UniProt O75874, R132C)
IC50, nM: 54

[Q] IC50 of COc1nc(C#N)ccc1N[C@@H](C)c1cc2cc(Cl)ccc2[nH]c1=O on Isocitrate dehydrogenase [NADP] cytoplasmic (Homo sapiens, UniProt O75874, R132C)?
[A] 338

====

EXPERIMENT SUMMARY: Apparent permeability from basolateral side to apical side in MDCK cells
Format: ADME, cell-based, Canis lupus familiaris
TEST CONDITIONS: dog
MEASUREMENT NAME: Papp B→A (nm/s)
All answers are understood in nm/s, so give the number only.

[Q] GET /values?readout=Papp B→A&item= COc1nc(N[C@@H](C)c2cc3cc(Cl)ccc3[nH]c2=O)ncc1C#N
[A] 79.7

====

MEASUREMENT TARGET: Isocitrate dehydrogenase [NADP] cytoplasmic (Homo sapiens, UniProt O75874, R132C)
EXPERIMENT SUMMARY: Inhibition of IDH1 R132C mutant in human HCT116 cells assessed as reduction in 2-HG levels after 24 hrs by RapidFire high-throughput mass spectrometry assay
Assay type: cell-based
# pIC50 listing for each entry below
Convention used: pIC50 is expressed as -log10 of the molar concentration.

Recorded pIC50, per entry:
CHEMICAL STRING: COc1cc(N[C@@H](C)c2cc3cc(Cl)ccc3[nH]c2=O)ccc1C#N
MEASUREMENT NAME: pIC50
RESULT VALUE: 6.67
//
CHEMICAL STRING: Cc1nc(N[C@@H](C)c2cc3cc(Cl)ccc3[nH]c2=O)ccc1C#N
MEASUREMENT NAME: pIC50
RESULT VALUE: 6.57
//
CHEMICAL STRING: COc1nc(N[C@@H](C)c2cc3cc(Cl)c(F)cc3[nH]c2=O)ncc1C#N
MEASUREMENT NAME: pIC50
RESULT VALUE: 6.59
//
CHEMICAL STRING: COc1nc(N[C@@H](C)c2cc3cc(Cl)c(OCc4ccccn4)cc3[nH]c2=O)ncc1C#N
MEASUREMENT NAME: pIC50
RESULT VALUE: 7.66
//
CHEMICAL STRING: COc1nc(N[C@@H](C)c2cc3cc(Cl)c(OC(C)C)cc3[nH]c2=O)ncc1C#N
MEASUREMENT NAME: pIC50
RESULT VALUE: 6.98

[Q] GET /values?readout=pIC50&item= COc1nc(N[C@@H](C)c2cc3cc(Cl)ccc3[nH]c2=O)ccc1C#N
[A] 7.04

[Q] // same read-out, input: COc1nc(N[C@@H](C)c2cc3cc(Cl)c(C4CC4)cc3[nH]c2=O)ncc1C#N
[A] 6.71

[Q] // same read-out, input: COc1cc(NCc2cc3cc(Cl)ccc3[nH]c2=O)ccc1C#N
[A] 5.72

[Q] // same read-out, input: Cc1nc(NCc2cc3cc(Cl)ccc3[nH]c2=O)ccc1C#N
[A] 5.49

[Q] // same read-out, input: COc1cc2[nH]c(=O)c([C@H](C)Nc3ncc(C#N)c(OC)n3)cc2cc1Cl
[A] 7.40

====

MEASUREMENT TARGET: CYP3A4 (Homo sapiens, UniProt P08684)
Sequence (P08684 whole entry): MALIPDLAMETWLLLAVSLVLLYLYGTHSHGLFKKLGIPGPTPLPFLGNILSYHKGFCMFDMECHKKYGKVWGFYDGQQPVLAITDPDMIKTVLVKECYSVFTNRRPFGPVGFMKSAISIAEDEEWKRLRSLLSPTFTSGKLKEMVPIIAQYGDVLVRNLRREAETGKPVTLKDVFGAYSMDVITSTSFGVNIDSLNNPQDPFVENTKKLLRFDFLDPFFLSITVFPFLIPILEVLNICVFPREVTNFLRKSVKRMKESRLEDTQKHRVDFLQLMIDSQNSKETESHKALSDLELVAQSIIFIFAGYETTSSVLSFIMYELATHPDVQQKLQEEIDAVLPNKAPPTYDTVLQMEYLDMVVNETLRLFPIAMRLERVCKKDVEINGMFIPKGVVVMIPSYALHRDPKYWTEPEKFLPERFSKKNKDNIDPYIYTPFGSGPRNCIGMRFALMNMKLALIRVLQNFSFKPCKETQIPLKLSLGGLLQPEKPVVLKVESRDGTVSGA
EXPERIMENT SUMMARY: Inhibition of CYP3A4 (unknown origin) at 10 uM relative to control
Format: ADME
MEASUREMENT NAME: inhibition at 10 µM (%)
All answers are understood in %, so give the number only.

[Q] GET /values?readout=inhibition at 10 µM&item= COc1nc(N[C@@H](C)c2cc3cc(Cl)ccc3[nH]c2=O)ncc1C#N
[A] 15.4

====

EXPERIMENT SUMMARY: Metabolic stability in rat liver microsomes assessed as compound remaining after 30 mins
Type: ADME, Microsome
TEST CONDITIONS: read-out: Stability
MEASUREMENT NAME: remaining at 0.5 h (%)
All answers are understood in %, so give the number only.

Recorded remaining at 0.5 h, per entry:
CHEMICAL STRING: COc1cc2[nH]c(=O)c([C@H](C)Nc3ncc(C#N)c(OC)n3)cc2cc1Cl
READOUT UNIT: %
RESULT VALUE: 88
//
CHEMICAL STRING: COc1nc(N[C@@H](C)c2cc3cc(Cl)c(OCC4CC4)cc3[nH]c2=O)ncc1C#N
READOUT UNIT: %
RESULT VALUE: 100
//
CHEMICAL STRING: COc1nc(N[C@@H](C)c2cc3cc(Cl)c(OCc4ccccn4)cc3[nH]c2=O)ncc1C#N
READOUT UNIT: %
RESULT VALUE: 77

[Q] GET /values?readout=remaining at 0.5 h&item= COc1nc(N[C@@H](C)c2cc3cc(Cl)c(F)cc3[nH]c2=O)ncc1C#N
[A] 100

[Q] // same read-out, input: COc1nc(N[C@@H](C)c2cc3cc(Cl)c(OC(C)C)cc3[nH]c2=O)ncc1C#N
[A] 90

[Q] // same read-out, input: COc1nc(N[C@@H](C)c2cc3cc(Cl)c(C4CC4)cc3[nH]c2=O)ncc1C#N
[A] 68

====

EXPERIMENT SUMMARY: Metabolic stability in human liver microsomes assessed as compound remaining after 30 mins
Format: ADME, Microsome
TEST CONDITIONS: read-out: Stability
Label Yes when remaining at 0.5 h is strictly below 80%; at or above that, label No.

Use these answered entries as a reference point.
CHEMICAL STRING: COc1cc(NCc2cc3cc(Br)ccc3[nH]c2=O)ccc1C#N
LABEL CLASS: No
--
CHEMICAL STRING: COc1ccc2[nH]c(=O)c(CNc3ccc(C#N)c(OC)c3)cc2c1
LABEL CLASS: Yes
--
CHEMICAL STRING: COc1cc(NCc2cc3cc(Cl)cc(OCCN4CCOCC4)c3[nH]c2=O)ccc1C#N
LABEL CLASS: Yes
--
CHEMICAL STRING: COc1cc(NCc2cc3cc(Cl)cc(OC)c3[nH]c2=O)ccc1C#N
LABEL CLASS: Yes
--
CHEMICAL STRING: COc1nc(N[C@@H](C)c2cc3cc(Cl)c(OCc4ccccn4)cc3[nH]c2=O)ncc1C#N
LABEL CLASS: No

[Q] Hi there! Is remaining at 0.5 h for Cc1nc(N[C@@H](C)c2cc3cc(Cl)ccc3[nH]c2=O)ccc1C#N below 80%, do you know?
[A] No

[Q] // same read-out, input: COc1cc(NCc2cc3cc(Cl)ccc3[nH]c2=O)ccc1-n1cnnn1
[A] No

[Q] // same read-out, input: COc1cc(NCc2cc3cc(Cl)c(OC4CCN(C)CC4)cc3[nH]c2=O)ccc1C#N
[A] Yes
